Tested on: B6C3F1 mice, ip Sarcoma M5076, median survival T/C
Experiment: NCI In Vivo Anticancer Drug Screen. Data for tumor model Sarcoma M5076 (intraperitoneal) in B6C3F1 mice
Settings: endpoint: median survival time; dose: 200.0 mg/kg/injection; schedule: Q04DX004 (ip); vehicle: other; higher = longer survival
Toxic doses and inconclusive results are not listed.
measurementLabel: T/C

Field: example entries. Status: answers known.
O=C1c2ccccc2C(=O)c2c1cn1c2Cc2ccccc2C1	97 % of control
CC(CNC(=O)C12CC3CC(CC(C3)C1)C2)NC(=O)C12CC3CC(CC(C3)C1)C2 (centres undefined)	98 % of control
Cc1noc2nc(-c3ccccc3)cc(N3CCN(C)CC3)c12	97 % of control

// next item, T/C requested
Req: Quote T/C reported for Cc1ccc(/C=C/C(=O)/C=C/c2ccc(C)o2)o1 please.
Resp: 108 % of control

---

System: B6C3F1 mice, ip Sarcoma M5076, median survival T/C
Test: NCI In Vivo Anticancer Drug Screen. Data for tumor model Sarcoma M5076 (intraperitoneal) in B6C3F1 mice
Details: endpoint: median survival time; dose: 200.0 mg/kg/injection; schedule: Q04DX004 (ip); vehicle: saline
Inconclusive results and toxic doses are left out. Rule for the calls: active = survival T/C of 150% or more; inactive = T/C below 125% in these data.
Your answer must be one of the following: active, inactive

Solved entries:
CNC(=O)OCc1nc(SC)n(C)c1COC(=O)NC	active
NC(=O)c1c[nH]n(C2OC(CO)C(O)C2O)c1=O (configuration not stated)	inactive
NCCCC(N)(C(=O)O)C(F)F (configuration not stated)	inactive
Cn1nnc2c(C(N)=O)ncn2c1=O	active
N=C(N)SCc1cccc2c(=O)cc(-c3ccccc3)oc12	inactive
CCCS(=N)(=O)CCC(N)C(=O)O (configuration not stated)	inactive
O=S(=O)(O)c1cc(N=C=S)ccc1/C=C/c1ccc(N=C=S)cc1S(=O)(=O)O	inactive
COC1N(C2CC(O)C(CO)O2)C(=O)NC(=O)C1(F)Br (configuration not stated)	inactive

Req: I would be grateful if you could indicate the recorded call for Nc1ncc(C2OC(CO)C(O)C2O)c(=O)[nH]1 (configuration not stated) .
Resp: inactive

Req: I would be grateful if you could indicate the recorded call for COc1ccc(C=C(C(=O)CCN(C)C)C(=O)CCN(C)C)cc1 .
Resp: inactive

Req: I would be grateful if you could indicate the recorded call for O=c1[nH]cnc2c1nnn2C1OC(CO)C(O)C1O (configuration not stated) .
Resp: inactive

Req: I would be grateful if you could indicate the recorded call for N#CC1C(=O)NC(=S)NC1c1ccc2c(c1)CCC2 (configuration not stated) .
Resp: inactive

---

System: B6C3F1 mice, ip Sarcoma M5076, median survival T/C
Experiment: NCI In Vivo Anticancer Drug Screen. Data for tumor model Sarcoma M5076 (intraperitoneal) in B6C3F1 mice
Details: endpoint: median survival time; dose: 100.0 mg/kg/injection; schedule: Q04DX004 (ip); vehicle: saline
Inconclusive results and toxic doses are left out. Rule for the calls: active = survival T/C of 150% or more; inactive = T/C below 125% in these data.
Your answer must be one of the following: True for active, False for inactive

COc1ccc(C[C@H](N)C(=O)NC2C(CO)OC(n3cnc4c(N(C)C)ncnc43)C2O)cc1 (some centres not stated)	False
COc1cc(C2c3cc4c(cc3[C@@H](OC3OC5CO[C@@H](C)OC5C(O)C3O)[C@H]3COC(=O)C23)OCO4)cc(OC)c1OC (some centres not stated)	False
O=c1[nH]cnc2c1nnn2C1OC(CO)C(O)C1O (configuration not stated)	False
CCCS(=N)(=O)CCC(N)C(=O)O (configuration not stated)	False
NCCCNCCCCNC(=O)C(O)NC(=O)CC(O)CCCCN=C(N)N (configuration not stated)	False

Req: I would be grateful if you could indicate the recorded call for O=C[C@@H](CO)O[C@H](C=O)c1c[nH]c(=O)[nH]c1=O .
Resp: True

Req: I would be grateful if you could indicate the recorded call for NC(=O)c1c[nH]n(C2OC(CO)C(O)C2O)c1=O (configuration not stated) .
Resp: False

Req: I would be grateful if you could indicate the recorded call for NC(=O)c1ccc[n+](Cc2c(Cl)cccc2Cl)c1 .
Resp: False

Req: I would be grateful if you could indicate the recorded call for NNC(=O)c1ccncc1 .
Resp: False

Req: I would be grateful if you could indicate the recorded call for NCCNCC(O)CO (configuration not stated) .
Resp: False

Req: I would be grateful if you could indicate the recorded call for O=S(O)Cc1ccccc1CSSSCc1ccccc1CS(=O)O .
Resp: False

Req: I would be grateful if you could indicate the recorded call for CCNC(=O)OCc1cnc(C)c(O)c1COC(=O)NCC .
Resp: False

---

The entries below come with measured T/C values attached.
Tested on: B6C3F1 mice, ip Sarcoma M5076, median survival T/C
Assay: NCI In Vivo Anticancer Drug Screen. Data for tumor model Sarcoma M5076 (intraperitoneal) in B6C3F1 mice
Conditions: endpoint: median survival time; dose: 1200.0 mg/kg/injection; schedule: Q04DX004 (ip); vehicle: saline with Tween-80; higher = longer survival
Inconclusive results and toxic doses are left out.

Field: example entries. Status: answers known.
CC(=O)Nc1ccc(O)c(O)c1	104 % of control
Nc1nc2c(ncn2C2OC(CO)C(O)C2O)c(=O)[nH]1 (centres undefined)	109 % of control

Req: Quote T/C reported for C=COC(=O)C(Cc1ccccc1)NC(=O)OCc1ccccc1 (centres undefined) please.
Resp: 88 % of control

Req: Quote T/C reported for CCC(CC)COC(=O)c1ccccc1C(=O)OCC(CC)CC please.
Resp: 114 % of control

---

Test system: B6C3F1 mice, ip Sarcoma M5076, median survival T/C
Experiment: NCI In Vivo Anticancer Drug Screen. Data for tumor model Sarcoma M5076 (intraperitoneal) in B6C3F1 mice
Settings: endpoint: median survival time; dose: 25.0 mg/kg/injection; schedule: Q04DX004 (ip); vehicle: water
Inconclusive results and toxic doses are left out. How the source made its calls: active means survival T/C of 150% or more; inactive means T/C below 125% in these data.
Your answer must be one of the following: active, inactive

Solved entries:
Cc1nnc2nc(N)[nH]n2c1=O	inactive
COc1ccc(OC)c(Cc2cnc3nc(N)nc(N)c3c2C)c1	inactive
Nc1nc2ncn(O)c2c(=O)[nH]1	inactive
Nc1nc(C=O)nc2c1ncn2C1OC(CO)C(O)C1O (configuration not stated)	inactive

Proceed to the following item.
Req: I would be grateful if you could indicate the recorded call for O=C1N(CCN2CCC3(CC2)OCCO3)CCN1c1cc(Cl)cc(Cl)c1 .
Resp: inactive

---

Test system: B6C3F1 mice, ip Sarcoma M5076, median survival T/C
Experiment: NCI In Vivo Anticancer Drug Screen. Data for tumor model Sarcoma M5076 (intraperitoneal) in B6C3F1 mice
Details: endpoint: median survival time; dose: 2.0 mg/kg/injection; schedule: Q04DX004 (ip); vehicle: saline
Inconclusive results and toxic doses are left out. Rule for the calls: active = survival T/C of 150% or more; inactive = T/C below 125% in these data.
Your answer must be one of the following: active, inactive

[CH3][Sn]([CH3])([Cl])[c]1cc[c]([Sn]([CH3])([CH3])[Cl])cc1	inactive
O=C1c2ccccc2C(=O)c2c(NCCNCCO)ccc(NCCNCCO)c21	inactive
CCCCCn1c(C)cc(/C=C\c2ccc3cc(C)ccc3[n+]2C)c1C	inactive

Proceed to the following item.
Req: I would be grateful if you could indicate the recorded call for N[C@@H](Cc1ccc(N(CCCl)CCCl)cc1)C(=O)O .
Resp: active

---

Tested on: B6C3F1 mice, ip Sarcoma M5076, median survival T/C
Assay: NCI In Vivo Anticancer Drug Screen. Data for tumor model Sarcoma M5076 (intraperitoneal) in B6C3F1 mice
Details: endpoint: median survival time; dose: 6.0 mg/kg/injection; schedule: Q04DX004 (ip); vehicle: Klucel (hydroxypropylcellulose) (HPC); higher = longer survival
Inconclusive results and toxic doses are left out.
measurementLabel: T/C

COc1cc2cc3c(c(O)c2c(O)c1/C=C/C(C)C)C(=O)CC(C)(OC(C)=O)C3 (stereo not given)	110 % of control
O=C1C(=O)c2cccnc2-c2ncccc21	110 % of control
C/C=C/C=C\C=C/C(O)CC(OP(=O)(O)O)C(C)(O)/C=C/C1CC=CC(=O)O1 (stereo not given)	112 % of control
CCC(=O)[O][Bi]([c]1ccccc1)[c]1ccccc1	98 % of control

// next item, T/C requested
Req: Quote T/C reported for C=C(Cl)C(=NC(C)(C)C)Nc1ccccc1C please.
Resp: 116 % of control

---

Tested on: B6C3F1 mice, ip Sarcoma M5076, median survival T/C
Assay: NCI In Vivo Anticancer Drug Screen. Data for tumor model Sarcoma M5076 (intraperitoneal) in B6C3F1 mice
Conditions: endpoint: median survival time; dose: 100.0 mg/kg/injection; schedule: Q04DX004 (ip); vehicle: saline
Toxic doses and inconclusive results are not listed. Rule for the calls: active = survival T/C of 150% or more; inactive = T/C below 125% in these data.
Your answer must be one of the following: Yes for active, No for inactive

Cc1ncc(CO)c(CO)c1OCC(O)CN1CCN(C(=O)c2ccccc2)CC1 (stereo not drawn)	No
CC1C(C#N)C(=O)NC(=O)C1C#N (stereo not drawn)	No
O=C1C[C@@H](c2ccccc2)NCCCCN(O)CCCN1	No
C=CCc1cn(C2CC(O)C(CO)O2)c(=O)[nH]c1=O (stereo not drawn)	No
Nc1ncc(C2OC(CO)C(O)C2O)c(=O)[nH]1 (stereo not drawn)	No

Req: I would be grateful if you could indicate the recorded call for Cn1nnc2c(C(N)=O)ncn2c1=O .
Resp: Yes

Req: I would be grateful if you could indicate the recorded call for COc1ccc(C=C(C(=O)CCN(C)C)C(=O)CCN(C)C)cc1 .
Resp: No

Req: I would be grateful if you could indicate the recorded call for CC(C)c1ccc(C2NC(=S)NC(=O)C2C#N)cc1 (stereo not drawn) .
Resp: No

Req: I would be grateful if you could indicate the recorded call for CN1C2CCC1C(Br)C(=O)C2 (stereo not drawn) .
Resp: No

Req: I would be grateful if you could indicate the recorded call for CC#CCOCC(O)CCl (stereo not drawn) .
Resp: No

Req: I would be grateful if you could indicate the recorded call for CC(NNC(=S)N(C)C1CCCCC1)c1cc2ccccc2cn1 (stereo not drawn) .
Resp: No

Req: I would be grateful if you could indicate the recorded call for CNC(=O)OCc1nc(SC)n(C)c1COC(=O)NC .
Resp: Yes
